test-system: Human α4β2 (Homo sapiens, UniProt P17787+P43681)
Construct: host or cells: SH-EP1
method: Competition binding to human α4β2 receptors in membranes of SH-EP1/human α4β2 cells ([3H]-nicotine)
condition-label: membrane competition binding, read-out: Human α4β2 Ki
What pKi was measured for each of the following?
# pKi: negative log10 of molar concentration; output just the value

Request: Any idea what its pKi is? The molecule is O=C(CC1CCCO1)N1CC2CC(C1)N2 (stereo not shown)
Result: 5.54

Request: Any idea what its pKi is? The molecule is CO[C@H](C(=O)N1C2CNCC1C2)c1ccccc1
Result: 5.15

Request: Any idea what its pKi is? The molecule is O=C(C1CC2C=CC1C2)N1C2CNCC1C2 (stereo not shown)
Result: 6.70

Request: Any idea what its pKi is? The molecule is O=C(CC1CCOC1)N1C2CNCC1C2 (stereo not shown)
Result: 6.48

Request: Any idea what its pKi is? The molecule is O=C(COc1ccc(Cl)c(Cl)c1)N1CC2CC(C1)N2
Result: 6.48

Request: Any idea what its pKi is? The molecule is O=C(c1ccnc(Cl)c1)N1C2CNCC1C2
Result: 6.01

Request: Any idea what its pKi is? The molecule is O=C(CCOc1ccc(F)cc1)N1C2CNCC1C2
Result: 5.92

Request: Any idea what its pKi is? The molecule is O=C(CCOc1ccc(F)cc1)N1CC2CC(C1)N2
Result: 6.18

Request: Any idea what its pKi is? The molecule is CC(=O)NCCCC(=O)N1CC2CC(C1)N2
Result: 5.72

Request: Any idea what its pKi is? The molecule is O=C(NCc1ccc(Cl)cc1Cl)N1C2CNCC1C2
Result: 5.96

Request: Any idea what its pKi is? The molecule is O=C(C1C2CCCCC21)N1C2CNCC1C2 (stereo not shown)
Result: 6.51

Request: Any idea what its pKi is? The molecule is O=C(c1ccno1)N1CC2CC(C1)N2
Result: 6.82

Request: Any idea what its pKi is? The molecule is CO[C@H](C(=O)N1CC2CC(C1)N2)c1ccccc1
Result: 6.02

Request: Any idea what its pKi is? The molecule is O=C(C1CCOCC1)N1CC2CC(C1)N2
Result: 6.49

Request: Any idea what its pKi is? The molecule is O=C(c1cc(Cl)cc(Cl)c1)N1CC2CC(C1)N2
Result: 5.48

Request: Any idea what its pKi is? The molecule is O=C(C1C2C3CCC(C3)C12)N1C2CNCC1C2 (stereo not shown)
Result: 5.72

* * *

What Ki was measured for each of the following?
test-system: Rat α4β2 (Rattus norvegicus, UniProt P09483+P12390)
Construct: Rat cortices were obtained from Analytical Biological Services; tissue Analytical Biological Services, Incorporated (ABS, Wilmington, Del.); host or cells: rat cortex (female Sprague-Dawley)
method: Competition binding to rat α4β2 receptors in rat cortical membranes
condition-label: Rat α4β2 Ki, rat cortex membranes
Method: Preparation of membranes from rat tissues. Rat cortices were obtained from Analytical Biological Services, Incorporated (ABS, Wilmington, Del.). Tissues were dissected from female Sprague-Dawley rats, frozen and shipped on dry ice. […] Protein concentrations were determined using the Pierce BCA Protein Assay kit (Pierce Biotechnology, Rockford, Ill.), with bovine serum albumin as the standard. […] Binding data analysis. Binding data were expressed as percent total control binding. […]
Give the quantity in nM, number only.

Request: Any idea what its Ki is? The compound is O=C(C1C2CCCCC21)N1CC2CC(C1)N2 (centres unmarked)
Result: 30

Request: Any idea what its Ki is? The compound is O=C([C@H]1C[C@H]1F)N1CC2CC(C1)N2 [drawing 110]
Result: 1.1

Request: Any idea what its Ki is? The compound is O=C([C@H]1C[C@@H]1F)N1CC2CC(C1)N2 [drawing 111]
Result: 0.81

Request: Any idea what its Ki is? The compound is O=C([C@@H]1C[C@@H]1F)N1CC2CC(C1)N2
Result: 0.86

Request: Any idea what its Ki is? The compound is O=C(CC1CCCC1)N1C2CNCC1C2
Result: 100

Request: Any idea what its Ki is? The compound is O=C([C@@H]1C[C@H]1F)N1CC2CC(C1)N2
Result: 0.54

Request: Any idea what its Ki is? The compound is O=C(c1cc(Br)co1)N1CC2CC(C1)N2
Result: 80

Request: Any idea what its Ki is? The compound is CCC1(CC)CC1C(=O)N1CC2CC(C1)N2 (centres unmarked)
Result: 69

Request: Any idea what its Ki is? The compound is [2H]C1([2H])C([2H])([2H])C1([2H])C(=O)N1CC2CC(C1)N2
Result: 0.24

Request: Any idea what its Ki is? The compound is O=C(c1cnco1)N1CC2CC(C1)N2
Result: 0.18

Request: Any idea what its Ki is? The compound is O=C(CC1CC1)N1CC2CC(C1)N2
Result: 17

Request: Any idea what its Ki is? The compound is C[C@H]1C[C@@H]1C(=O)N1CC2CC(C1)N2 [drawing 170]
Result: 4.8

Request: Any idea what its Ki is? The compound is Cc1nocc1C(=O)N1CC2CC(C1)N2
Result: 60

Request: Any idea what its Ki is? The compound is C[C@@H]1C[C@H]1C(=O)N1C2CNCC1C2
Result: 50

Request: Any idea what its Ki is? The compound is C[C@H]1C[C@@H]1C(=O)N1CC2CC(C1)N2 [drawing 157]
Result: 100

Request: Any idea what its Ki is? The compound is O=C(C1CC12CCCC2)N1CC2CC(C1)N2 (centres unmarked)
Result: 31

Request: Any idea what its Ki is? The compound is CC1(C)CC1C(=O)N1C2CNCC1C2 (centres unmarked)
Result: 45

Request: Any idea what its Ki is? The compound is O=C(NCc1ccc(Cl)cc1)N1CC2CC(C1)N2
Result: 4

Request: Any idea what its Ki is? The compound is O=C([C@H]1C[C@H]1F)N1C2CNCC1C2
Result: 0.89

Request: Any idea what its Ki is? The compound is COCC(=O)N1CC2CC(C1)N2
Result: 50

* * *

test-system: α6β3β4α5 (Homo sapiens, UniProt P30926+Q15825)
Construct: host or cells: SH-EP1
method: Competition binding to α6β3β4α5 receptors in membranes of SH-EP1/α6β3β4α5 cells ([3H]-epibatidine)
condition-label: membrane competition binding, read-out: α6β3β4α5 Ki
What pKi was measured for each of the following?
# pKi: negative log10 of molar concentration; output just the value

Request: Any idea what its pKi is? The molecule is O=C([C@H]1CCCO1)N1C2CNCC1C2
Result: 5.96

Request: Any idea what its pKi is? The molecule is O=C(CC1CCC1)N1C2CNCC1C2
Result: 6.44

Request: Any idea what its pKi is? The molecule is C[C@H]1C[C@H]1C(=O)N1C2CNCC1C2
Result: 5.74

Request: Any idea what its pKi is? The molecule is O=C(c1cc(Br)co1)N1CC2CC(C1)N2
Result: 5.57

Request: Any idea what its pKi is? The molecule is O=C(CC1CCC1)N1CC2CC(C1)N2
Result: 6.36

Request: Any idea what its pKi is? The molecule is O=C(C1CC12CCC2)N1C2CNCC1C2 (centres unmarked)
Result: 6.47

Request: Any idea what its pKi is? The molecule is O=C(C1CC2C=CC1C2)N1C2CNCC1C2 (centres unmarked)
Result: 6.05

Request: Any idea what its pKi is? The molecule is O=C(NCc1ccc(Cl)c(Cl)c1)N1CC2CC(C1)N2
Result: 6.92

Request: Any idea what its pKi is? The molecule is O=C([C@@H]1C[C@H]2C=C[C@H]1C2)N1C2CNCC1C2
Result: 5.89

Request: Any idea what its pKi is? The molecule is O=C(c1cnco1)N1CC2CC(C1)N2
Result: 4.77

Request: Any idea what its pKi is? The molecule is C/C=C/CCC(=O)N1CC2CC(C1)N2
Result: 6.27

Request: Any idea what its pKi is? The molecule is CCC[C@H]1C[C@H]1C(=O)N1CC2CC(C1)N2
Result: 6.66

Request: Any idea what its pKi is? The molecule is C[C@H]1C[C@@H]1C(=O)N1C2CNCC1C2
Result: 4.51

Request: Any idea what its pKi is? The molecule is O=C([C@@H]1C[C@H]1c1ccccc1)N1C2CNCC1C2
Result: 6.46

Request: Any idea what its pKi is? The molecule is O=C(c1cc(Cl)cc(Cl)c1)N1C2CNCC1C2
Result: 4.85

Request: Any idea what its pKi is? The molecule is C[C@@H]1C(C(=O)N2CC3CC(C2)N3)[C@@H]1C (some centres unmarked)
Result: 6.77

Request: Any idea what its pKi is? The molecule is O=C(CC1CCOC1)N1C2CNCC1C2 (centres unmarked)
Result: 5.80

Request: Any idea what its pKi is? The molecule is O=C(C1CC12CCCC2)N1C2CNCC1C2 (centres unmarked)
Result: 6.21

Request: Any idea what its pKi is? The molecule is O=C(c1occc1Cl)N1CC2CC(C1)N2
Result: 5.62

Request: Any idea what its pKi is? The molecule is O=C(c1ccc(Br)o1)N1CC2CC(C1)N2
Result: 5.74

Request: Any idea what its pKi is? The molecule is O=C([C@@H]1C[C@@H]2C=C[C@H]1C2)N1CC2CC(C1)N2
Result: 5.89

Request: Any idea what its pKi is? The molecule is O=C(NCc1ccc(Cl)cc1)N1CC2CC(C1)N2
Result: 6.68

Request: Any idea what its pKi is? The molecule is C[C@@H]1C[C@H]1C(=O)N1C2CNCC1C2
Result: 5.77

Request: Any idea what its pKi is? The molecule is CC1CC(C(=O)N2C3CNCC2C3)C1 (centres unmarked)
Result: 6.11

Request: Any idea what its pKi is? The molecule is O=C(CSc1ccc(O)cc1)N1CC2CC(C1)N2
Result: 6.92

Request: Any idea what its pKi is? The molecule is Cc1ncoc1C(=O)N1CC2CC(C1)N2
Result: 4.96

Request: Any idea what its pKi is? The molecule is CCCC(=O)N1C2CNCC1C2
Result: 6.64

Request: Any idea what its pKi is? The molecule is CC1CC(C(=O)N2CC3CC(C2)N3)C1 (centres unmarked)
Result: 6.42

Request: Any idea what its pKi is? The molecule is O=C(CC1CC1)N1C2CNCC1C2
Result: 6.51

Request: Any idea what its pKi is? The molecule is O=C(NCc1ccc(Cl)cc1)N1C2CNCC1C2
Result: 5.47

Request: Any idea what its pKi is? The molecule is O=C(CC(F)(F)F)N1CC2CC(C1)N2
Result: 5.77

Request: Any idea what its pKi is? The molecule is O=C(CC1CCCC1)N1C2CNCC1C2
Result: 6.44

Request: Any idea what its pKi is? The molecule is O=C(COc1ccc(Cl)c(Cl)c1)N1CC2CC(C1)N2
Result: 6.15

Request: Any idea what its pKi is? The molecule is O=C(C1C2CCCCC21)N1CC2CC(C1)N2 (centres unmarked)
Result: 6.55

Request: Any idea what its pKi is? The molecule is C/C=C/CCC(=O)N1C2CNCC1C2
Result: 6.40

Request: Any idea what its pKi is? The molecule is O=C(NCc1ccc(Cl)c(Cl)c1)N1C2CNCC1C2
Result: 5.23

Request: Any idea what its pKi is? The molecule is O=C(NCc1ccc(Cl)cc1Cl)N1C2CNCC1C2
Result: 4.68

Request: Any idea what its pKi is? The molecule is O=C(CCC(F)(F)F)N1CC2CC(C1)N2
Result: 6.01

Request: Any idea what its pKi is? The molecule is O=C(NCc1ccccc1)N1CC2CC(C1)N2
Result: 6.40

Request: Any idea what its pKi is? The molecule is O=C(CCC(F)(F)F)N1C2CNCC1C2
Result: 5.82

Request: Any idea what its pKi is? The molecule is C[C@@H]1C[C@@H]1C(=O)N1C2CNCC1C2
Result: 4.52
